Run description: chemical recovery by SPE of plasma after PDMS sampling; higher = better extraction;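 also: over 400 spiked chemicals quantified by LC-HRMS or GC-HRMS via internal standard calibration, recovery relative to spike mix added to unspiked plasma extract to correct matrix effects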
Condition: pooled human plasma; extraction method: HLB SPE of plasma after PES; equilibration time (d): 1
Give measured chemical recovery by SPE of plasma for each item. Keep answers brief.
Give the quantity in %, number only.

Quick check: chemical recovery by SPE of plasma of `COCN(COC)c1nc(N(COC)COC)nc(N(COC)COC)n1` ?
7.64

Which measured chemical recovery by SPE of plasma value corresponds to `C[C@@H]1C[C@H]2[C@@H]3C[C@H](F)C4=CC(=O)C=C[C@]4(C)[C@@]3(F)[C@@H](O)C[C@]2(C)[C@@]1(O)C(=O)CO` ?
46.8

Item `c1ccc2c(c1)ccc1ccccc12` has what recorded chemical recovery by SPE of plasma?
2.82

Please look up its chemical recovery by SPE of plasma: `Nc1cccc2ccccc12`
11.2

Please look up its chemical recovery by SPE of plasma: CC/C(=N\OC/C=C/Cl)C1=C(O)CC(C2CCOCC2)CC1=O (stereo not drawn)
47.5

Given `CN(C)C(=O)Nc1ccc(Oc2ccc(Cl)cc2)cc1` , state its recorded chemical recovery by SPE of plasma.
11

Find the recorded chemical recovery by SPE of plasma belonging to O=S(=O)(O)NC1CCCCC1 [Cyclamate] and report it.
7.95

Any idea what its chemical recovery by SPE of plasma is? The molecule is CC(=O)c1cc2c(cc1C)C(C)(C)C(C)CC2(C)C (stereo not drawn) [Tonalide]
0.526

Data request, read-out chemical recovery by SPE of plasma, for `CO/C=C(/C(=O)O)c1ccccc1Oc1cc(Oc2ccccc2C#N)ncn1`
46.8

Bench note: what chemical recovery by SPE of plasma did `Fc1ccc([C@@H]2CCNC[C@H]2COc2ccc3c(c2)OCO3)cc1` show?
2.65

# chemical recovery by SPE of plasma lookup, item `O=[N+]([O-])/N=C1\NCCN1Cc1ccc(Cl)nc1`
49

Query (molecule): `CC(C)N(C(=O)CCl)c1ccccc1` ; field requested: chemical recovery by SPE of plasma
1.58

Endpoint output: chemical recovery by SPE of plasma of CN(C)NC(=O)CCC(=O)O [Daminozide] . Value?
1.49

Requested read-out: chemical recovery by SPE of plasma. Entry: CCCCNS(=O)(=O)c1ccccc1 [N-Butylbenzenesulfonamide]
11.4

GET /values?readout=chemical recovery by SPE of plasma&item= `Cc1ccc(NC(=O)N(C)C)cc1Cl`
10.3

What chemical recovery by SPE of plasma value was documented for this molecule, CC(CCc1ccccc1)NCC(O)c1ccc(O)c(C(N)=O)c1 (stereo not drawn) ?
46.4

Form field: reported chemical recovery by SPE of plasma of Clc1ccc(COC(Cn2ccnc2)c2ccc(Cl)cc2Cl)c(Cl)c1 (stereo not drawn)
0.659

Look at this molecule and give its reported chemical recovery by SPE of plasma. Cc1cc(O)cc(C)c1[S+](C)[O-] (stereo not drawn) [Methiocarb-sulfoxide phenol]
66.4
